Data origin: ChEMBL document CHEMBL1123491

biological target: Adenosine A2 receptor (Homo sapiens, UniProt P29275+P29274); assay: Potency against human platelet A2 adenosine receptor
Result Type: EC50 (µM)

Guide cases for EC50, answers given:
NC(=O)[C@H]1OC(n2cnc3c(N)ncnc32)[C@H](O)[C@@H]1O (stereo not given in full): 5.7
Nc1ncnc2c1ncn2[C@@H]1O[C@H](C(=O)NC2CC2)[C@@H](O)[C@H]1O: 0.26

a = CNC(=O)[C@H]1O[C@@H](n2cnc3c(N)ncnc32)[C@H](O)[C@@H]1O
b = CCNC(=O)[C@H]1O[C@@H](n2cnc3c(N[C@H](C)Cc4ccccc4)ncnc32)[C@H](O)[C@@H]1O
Lookup: Would you kindly point out which of a and b has the smaller EC50 figure? Returns: label corresponding to the selected item.
Found: a

====

target: Adenosine receptor A1 (Rattus norvegicus, UniProt P25099); test: Potency against rat brain adenosine A1 receptor
Sequence (P25099 whole entry): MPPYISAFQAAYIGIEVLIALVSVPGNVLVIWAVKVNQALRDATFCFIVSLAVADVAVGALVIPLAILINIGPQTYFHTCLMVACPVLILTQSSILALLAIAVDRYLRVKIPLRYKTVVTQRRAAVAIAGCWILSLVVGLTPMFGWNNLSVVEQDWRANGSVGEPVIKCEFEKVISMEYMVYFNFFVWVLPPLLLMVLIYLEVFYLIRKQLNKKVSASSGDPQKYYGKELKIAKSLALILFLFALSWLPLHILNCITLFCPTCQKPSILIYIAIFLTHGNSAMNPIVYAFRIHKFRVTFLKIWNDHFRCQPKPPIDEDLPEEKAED
Result Type: IC50 (nM)

Guide cases for IC50, answers given:
CNC(=O)[C@H]1O[C@@H](n2cnc3c(N)ncnc32)[C@H](O)[C@@H]1O: 105
CCNC(=O)[C@H]1O[C@@H](n2cnc3c(N[C@H](CC)Cc4ccccc4)ncnc32)[C@H](O)[C@@H]1O: 0.52
C=CCNC(=O)[C@H]1OC(n2cnc3c(NC(CC)CC)ncnc32)[C@H](O)[C@@H]1O (some centres not stated): 17
NC(=O)[C@H]1OC(n2cnc3c(N)ncnc32)[C@H](O)[C@@H]1O (some centres not stated): 70

I = CCC(CC)Nc1ncnc2c1ncn2C1O[C@H](C(=O)NCc2ccccc2)[C@@H](O)[C@H]1O (some centres not stated)
II = CCC(CC)Nc1ncnc2c1ncn2C1O[C@H](C(=O)N(C)C)[C@@H](O)[C@H]1O (some centres not stated)
Lookup: Would you kindly point out which of I and II has the smaller IC50 figure? Returns: label corresponding to the selected item.
Found: I

====

biological target: Adenosine A2 receptor (Rattus norvegicus, UniProt P29276+P30543); test: Potency against PC12 cell A2 adenosine receptor by adenylate cyclase activation; format: cell-based; conditions: pc-12
Result Type: EC50 (µM)

Guide cases for EC50, answers given:
CCNC(=O)[C@H]1OC(n2cnc3c(NC4CCCCC4)ncnc32)[C@H](O)[C@@H]1O (some centres undefined): 1.83
CCC(CC)Nc1ncnc2c1ncn2C1O[C@H](C(=O)NC)[C@@H](O)[C@H]1O (some centres undefined): 6.4

P = CCC(CC)Nc1ncnc2c1ncn2C1O[C@H](C(=O)NC(C)C)[C@@H](O)[C@H]1O (some centres undefined)
Q = NC(=O)[C@H]1OC(n2cnc3c(N)ncnc32)[C@H](O)[C@@H]1O (some centres undefined)
R = CCC(CC)Nc1ncnc2c1ncn2C1O[C@H](C(=O)NC2CC2)[C@@H](O)[C@H]1O (some centres undefined)
S = CCNC(=O)[C@H]1O[C@@H](n2cnc3c(N[C@H](C)Cc4ccccc4)ncnc32)[C@H](O)[C@@H]1O
T = C=CCNC(=O)[C@H]1OC(n2cnc3c(NC(CC)CC)ncnc32)[C@H](O)[C@@H]1O (some centres undefined)
Lookup: Order the records, beginning with the lowest EC50 and ending with the highest. Rank them, then answer with their labels in that order.
Found: R, S, Q, P, T

====

biological target: Adenosine receptor A1 (Rattus norvegicus, UniProt P25099); test: Potency against rat brain A1 adenosine receptor
Result Type: IC50 (nM)

A = CCC(CC)Nc1ncnc2c1ncn2C1O[C@H](C(=O)NC2CC2)[C@@H](O)[C@H]1O (some centres not stated)
B = CCC(CC)Nc1ncnc2c1ncn2C1O[C@H](C(=O)NC(C)C)[C@@H](O)[C@H]1O (some centres not stated)
Lookup: Which of the two items, A and B , has the greater recorded IC50? Returns: label corresponding to the selected item.
Found: B

====

target: Adenosine receptor A1 (Rattus norvegicus); assay: Potency against rat brain adenosine A1 receptor
pIC50: −log10 of the molar value.
Result Type: pIC50

a = CCC(CC)Nc1ncnc2c1ncn2C1O[C@H](C(=O)N(CC)CC)[C@@H](O)[C@H]1O (stereo partly specified)
b = CCC(CC)Nc1ncnc2c1ncn2C1O[C@H](C(=O)NC)[C@@H](O)[C@H]1O (stereo partly specified)
Lookup: Which of the two items, a and b , has the greater recorded pIC50? Returns: label corresponding to the selected item.
Found: b

I = CCNC(=O)[C@H]1O[C@@H](n2cnc3c(N[C@H](C)Cc4ccccc4)ncnc32)[C@H](O)[C@@H]1O
II = CCNC(=O)[C@H]1O[C@@H](n2cnc3c(N[C@@H](CC)Cc4ccccc4)ncnc32)[C@H](O)[C@@H]1O
Lookup: Would you kindly point out which of I and II has the smaller pIC50 figure? Returns: label corresponding to the selected item.
Found: II
(II: 7.59, I: 8.62)

a = CCC(CC)NC(=O)[C@H]1OC(n2cnc3c(NC(CC)CC)ncnc32)[C@H](O)[C@@H]1O (stereo partly specified)
b = CCNC(=O)[C@H]1OC(n2cnc3c(N(C)C)ncnc32)[C@H](O)[C@@H]1O (stereo partly specified)
Lookup: Which of the two items, a and b , has the greater recorded pIC50? Returns: label corresponding to the selected item.
Found: a
(a: 5.85, b: 5.00)
